All values here come from ChEMBL document CHEMBL5303304.

# Tested on: HEK-293T
# measurementDescription: Incucyte cell viability with HEK293T; also: unitless GR value; below 1 slowed growth and below 0 cell loss
# Format: toxicity, cell-based
# testParameters: human, 6 h, 10 µM, compound concentration 10 uM, replicate number 1
Would you please tag the item 1 when its Growth Rate is 0.1 or above, and 0 when it is below?

1) CN1CCN([C@H]2CC[C@@H](n3cc(-c4ccc(Oc5ccccc5)cc4)c4c(N)ncnc43)CC2)CC1 = 0

Field: next compound
IN: Test whether the compound CC/C(=C(\c1ccccc1)c1ccc(OCCN(C)C)cc1)c1ccccc1.O=C(O)CC(O)(CC(=O)O)C(=O)O [TAMOXIFEN CITRATE] records Growth Rate of 0.1 or higher.
OUT: 1
